# Test system: Pseudomonas aeruginosa MDR R22 from China (V1)
# ASSAY OVERVIEW: MIC assay, CAMHB with alginate oligomer, no visible growth
# Format: cell-based
# EXPERIMENTAL PARAMETERS: Pseudomonas aeruginosa, Table 1; V1 MDR R22 PA; OligoCF-5/20 +6% G; read-out: MIC
Exercise: for every item that follows, state its recorded MIC.

Q: Need MIC of O=C(O)c1cn(C2CC2)c2cc(N3CCNCC3)c(F)cc2c1=O [Ciprofloxacin] , thanks.
A: 8 µg/mL

Q: What measured MIC goes with C[C@H]1[C@H](NC(=O)/C(=N\OC(C)(C)C(=O)O)c2csc(N)n2)C(=O)N1S(=O)(=O)O [Aztreonam] ?
A: < 4 µg/mL

Q: Reported MIC for C[C@@H](O)[C@H]1C(=O)N2C(C(=O)O)=C(S[C@@H]3CN[C@H](C(=O)N(C)C)C3)[C@H](C)[C@H]12 [Meropenem] : what is it?
A: 16 µg/mL

Q: Find the recorded MIC belonging to CC[C@H]1OC(=O)[C@H](C)[C@@H](O[C@H]2C[C@@](C)(OC)[C@@H](O)[C@H](C)O2)[C@H](C)[C@@H](O[C@@H]2O[C@H](C)C[C@H](N(C)C)[C@H]2O)[C@](C)(O)C[C@@H](C)CN(C)[C@H](C)[C@@H](O)[C@]1(C)O [Azithromycin] and report it.
A: 64 µg/mL

Q: Need MIC of CC(C)(O/N=C(\C(=O)N[C@@H]1C(=O)N2C(C(=O)[O-])=C(C[n+]3ccccc3)CS[C@H]12)c1csc(N)n1)C(=O)O [Ceftazidime] , thanks.
A: 32 µg/mL
